- EXPERIMENTAL_DETAILS: Antiproliferative activity against human OCI-Ly2 cells measured after 72 hrs by calcein AM dye-based fluorescence assay
- Type: functional
QUANTITY: log10(GI50) (log10 of the value in nM)
Answers are given as log10 of GI50 in nM.

Please review the following examples before continuing.
C=CC(=O)N1CCC[C@@H](n2nc(-c3ccc(Oc4ccccc4)cc3)c3c(N)ncnc32)C1; 4.28
CC(C)c1n[nH]c2c(NCc3ccc(-c4ccccn4)cc3)nc(SCCCN)nc12; 2.18
CC(C)c1n[nH]c2c(NCc3ccc(-c4ccccn4)cc3)nc(SCC(O)C(F)(F)F)nc12 (centres undefined); 2.77

Prompt: For the compound shown here, `CC(C)c1n[nH]c2c(NCc3ccc(-c4ccccn4)cc3)nc(SCCN(C)C)nc12` , give the reported log10(GI50).
Response: 1.79

Prompt: I would be grateful if you could share the reported log10(GI50) for `CCc1cnn2c(NCc3ccc[n+]([O-])c3)cc(N3CCCC[C@H]3CCO)nc12` .
Response: 1.04

Prompt: Name the reported log10(GI50) value associated with the compound CCC(O)CSc1nc(NCc2ccc(-c3ccccn3)cc2)c2[nH]nc(C(C)C)c2n1 (centres undefined)
Response: 2.45
